# measured_target: OGA (S400 O-GLCNAC) (Homo sapiens (Human), UniProt O60502)
# Sequence (O60502 whole entry): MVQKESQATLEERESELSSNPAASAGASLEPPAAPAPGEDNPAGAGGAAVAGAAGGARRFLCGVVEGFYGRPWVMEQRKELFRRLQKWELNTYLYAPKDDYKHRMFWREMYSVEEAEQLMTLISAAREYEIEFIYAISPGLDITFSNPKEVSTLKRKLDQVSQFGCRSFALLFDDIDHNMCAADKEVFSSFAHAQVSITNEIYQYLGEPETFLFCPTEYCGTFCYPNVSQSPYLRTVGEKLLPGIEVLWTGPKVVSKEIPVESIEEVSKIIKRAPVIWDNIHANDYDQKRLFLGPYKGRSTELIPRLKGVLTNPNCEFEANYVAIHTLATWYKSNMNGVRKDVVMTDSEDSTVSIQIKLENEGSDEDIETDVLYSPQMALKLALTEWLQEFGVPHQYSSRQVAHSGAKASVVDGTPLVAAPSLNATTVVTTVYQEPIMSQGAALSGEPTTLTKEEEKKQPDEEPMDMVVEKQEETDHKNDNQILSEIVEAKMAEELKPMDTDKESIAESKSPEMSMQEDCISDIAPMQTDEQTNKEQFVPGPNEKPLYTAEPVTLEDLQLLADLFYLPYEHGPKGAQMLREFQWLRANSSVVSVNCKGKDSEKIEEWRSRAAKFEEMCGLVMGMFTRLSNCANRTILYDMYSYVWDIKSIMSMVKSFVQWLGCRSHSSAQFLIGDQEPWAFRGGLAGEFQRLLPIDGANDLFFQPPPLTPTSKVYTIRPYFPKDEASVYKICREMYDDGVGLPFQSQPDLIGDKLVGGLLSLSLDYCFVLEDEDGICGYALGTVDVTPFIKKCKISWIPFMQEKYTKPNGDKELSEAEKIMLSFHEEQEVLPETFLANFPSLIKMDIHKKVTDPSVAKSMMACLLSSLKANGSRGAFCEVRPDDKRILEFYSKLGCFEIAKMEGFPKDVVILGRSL
# protocol: Cellular OGA-Tau MSD Assay
# run_parameters: HEK-293T cells transfected with OGT and Tau-V5; Tau-S400-GlcNAc MSD readout
pIC50: −log10 of the molar value.
The entries below come with measured pIC50 values attached.
readout: pIC50

>>> df
                                    molecule  relation_sign  experimental_value
 0  CC(=O)Nc1ncc(CN2CCCC3(CCCO3)C2)s1 (centres unmarked) [Example 52]              <                6.00
 1  CC(=O)Nc1nc(F)c(CN2C[C@@]3(Cc4cc(N5CCOCC5)ncc4O3)C[C@@H]2C)s1 [Example 36]              =                8.10
 2  CC(=O)Nc1nc(F)c(CN2C[C@@]3(Cc4cc(N5CCN(C)CC5)ncc4O3)C[C@@H]2C)s1 [Example 45]              =                8.52
 3  CC(=O)Nc1ncc(CN2CC3(C[C@@H]2C)OCc2ncccc23)s1 (some centres unmarked) [Example 80]              =                7.82
 4  CC(=O)Nc1nc(F)c(CN2C[C@@]3(Cc4cc(N(C)C)ncc4O3)C[C@@H]2C)s1 [Example 28]              =                9.00
 5  CC(=O)Nc1nc(F)c(CN2C[C@@]3(Cc4ccncc4O3)C[C@@H]2C)s1 [Example 9]              =                7.92
 6  CC(=O)Nc1ncc(CN2CCC3(C2)OCc2cnccc23)s1 (centres unmarked) [Example 66]              =                6.10
 7  CC(=O)Nc1ncc(CN2CCCC3(C2)OCc2ccccc23)s1 (centres unmarked) [Example 55]              =                6.60
 8  CC(=O)Nc1nc(F)c(CN2C[C@@]3(Cc4cc(C)ncc4O3)C[C@@H]2C)s1 [Example 23]              =                7.89
 9  CC(=O)Nc1ncc(CN2CCC3(Cc4cnccc4O3)C2)s1 (centres unmarked) [Example 13]              =                6.10
10  CC(=O)Nc1ncc(CN2C[C@@]3(Cc4cc(N5CCOCC5)ncc4O3)C[C@@H]2C)s1 [Example 37]              =                8.05
11  CC(=O)Nc1nc(F)c(CN2C[C@@]3(Cc4cc(N5C[C@H](C)O[C@@H](C)C5)ncc4O3)C[C@@H]2C)s1 [Example 43]              =                8.10
12  COc1cnc2c(n1)CC1(C[C@H](C)N(Cc3sc(NC(C)=O)nc3F)C1)O2 (some centres unmarked) [Example 50]              =                8.05
13  CC(=O)Nc1ncc(CN2C[C@@]3(Cc4cc(N5CCN(C)CC5)ncc4O3)C[C@@H]2C)s1 [Example 44]              =                7.89
14  CC(=O)Nc1ncc(CN2CC3(C[C@@H]2C)OCc2cccnc23)s1 (some centres unmarked) [Example 62]              =                7.14
15  CC(=O)Nc1nc(F)c(CN2C[C@@]3(Cc4cc(C(F)(F)F)ncc4O3)C[C@@H]2C)s1 [Example 21]              =                8.22
16  CC(=O)Nc1ncc(CN2CCCC3(C2)OCc2c3cc[nH]c2=O)s1 (centres unmarked) [Example 87]              =                7.27

====

# measured_target: OGA (S400 O-GLCNAC) (Homo sapiens (Human))
# protocol: Cellular OGA-Tau MSD Assay
# run_parameters: HEK-293T cells transfected with OGT and Tau-V5; Tau-S400-GlcNAc MSD readout
readout: log10(IC50) (log10 of the value in nM)

In [3]: df
Out[3]:
                                   molecule  experimental_value
0  CC(=O)Nc1ncc(CN2CCCC3(C2)OCc2ccncc23)s1 (stereo not drawn)                1.35
1  CCOc1cc2c(cn1)O[C@]1(C2)C[C@H](C)N(Cc2sc(NC(C)=O)nc2F)C1                0.48
2  CC(=O)Nc1ncc(CN2CCC3(C2)OCc2ccccc23)s1 (stereo not drawn)                2.91
3  CC(=O)Nc1nc(F)c(CN2CCCC3(C2)OCc2ccccc23)s1 (stereo not drawn)                2.05
4  CC(=O)Nc1nc(F)c(CN2CC3(Cc4nc(O)cnc4O3)C[C@@H]2C)s1 (stereo partly drawn)                1.77
5  CC(=O)Nc1nc(F)c(CN2C[C@@]3(Cc4cc(NC(C)C)ncc4O3)C[C@@H]2C)s1                0.90
6  CC(=O)Nc1nc(F)c(CN2CC3(C[C@@H]2C)OCc2ccccc23)s1 (stereo partly drawn)                1.15
7  CC(=O)Nc1ncc(CN2C[C@@]3(Cc4cc(C5CC5)ncc4O3)C[C@@H]2C)s1                1.36
8  CC(=O)Nc1nc(F)c(CN2CCC3(C2)OCc2cnccc23)s1 (stereo not drawn)                3.00

====

# measured_target: Recombinant full length human OGA enzyme (Homo sapiens (Human))
# Sequence (O60502 whole entry): as above
# protocol: OGA Enzyme Inhibition Biochemical Assay
# run_parameters: 1 nM OGA, 100 μM 4-MUGlcNAc, 90 minutes, pH 6.4
# class assignment by measured IC50: LOW (below 6 nM), MID (6 nM to below 200 nM), HIGH (200 nM or more)

>>> print(df.to_string())
                                    compound  label
 0  CC(=O)Nc1ncc(CN2C[C@@]3(Cc4cc(N5CCC5)ncc4O3)C[C@@H]2C)s1 [Example 35]    LOW
 1  CC(=O)Nc1nc(F)c(CN2C[C@@]3(C[C@@H]2C)OCc2ccncc23)s1 (single isomer, unassigned) [Example 72-a]    MID
 2  COCCN(C)c1cc2c(cn1)O[C@]1(C2)C[C@H](C)N(Cc2cnc(NC(C)=O)s2)C1 [Example 32]    LOW
 3  CC(=O)Nc1ncc(CN2C[C@@]3(Cc4cc(N5CCOCC5)ncc4O3)C[C@@H]2C)s1 [Example 37]    LOW
 4  CC(=O)Nc1nc(F)c(CN2C[C@]3(C[C@@H]2C)OCc2cnccc23)s1 (single isomer, unassigned) [Example 64-b]    MID
 5  CC(=O)Nc1nc(F)c(CN2CCC3(Cc4cccnc4O3)C2)s1 (stereo not drawn) [Example 15]   HIGH
 6  CC(=O)Nc1ncc(CN2C[C@]3(C[C@@H]2C)OCc2ccncc23)s1 [Example 71-b]   HIGH
 7  CC(=O)Nc1nc(F)c(CN2C[C@@]3(Cc4cc(N5C[C@H](C)O[C@@H](C)C5)ncc4O3)C[C@@H]2C)s1 [Example 43]    LOW
 8  CNc1cc2c(cn1)O[C@]1(C2)C[C@H](C)N(Cc2sc(NC(C)=O)nc2F)C1 [Example 29]    LOW
 9  CC(=O)Nc1ncc(CN2CCC3(C2)OCc2ccccc23)s1 (stereo not drawn) [Example 57]    MID
10  CC(=O)Nc1nc(F)c(CN2CCC[C@@]3(C2)OCc2cnccc23)s1 (single isomer, unassigned) [Example 70-a]    LOW
11  COc1cnc2c(n1)CC1(C[C@H](C)N(Cc3sc(NC(C)=O)nc3F)C1)O2 (stereo partly drawn) [Example 50]    LOW
12  CC(=O)Nc1ncc(CN2CCC3(Cc4cnccc4O3)C2)s1 (stereo not drawn) [Example 13]    MID
13  CC(=O)Nc1ncc(CN2CCC3(Cc4cnc(Cl)cc4O3)C2)s1 (stereo not drawn) [Example 8]    MID
14  CC(=O)Nc1nc(F)c(CN2CCC3(Cc4ncccc4O3)C2)s1 (stereo not drawn) [Example 91]    MID
15  CC(=O)Nc1nc(F)c(CN2CCC3(Cc4cc(Cl)ccc4O3)C2)s1 (stereo not drawn) [Example 6]    MID
16  CC(=O)Nc1ncc(CN2CCCC3(C2)OCc2ccccc23)s1 (stereo not drawn) [Example 55]    MID
17  CC(=O)Nc1nc(F)c(CN2C[C@@]3(Cc4ncccc4O3)C[C@@H]2C)s1 (single isomer, unassigned) [Example 19-a]    LOW
18  CC(=O)Nc1ncc(CN2C[C@@]3(C[C@@H]2C)OCc2ccncc23)s1 [Example 71-a]    MID
19  COc1ccc2c(n1)C[C@]1(C[C@H](C)N(Cc3sc(NC(C)=O)nc3F)C1)O2 [Example 20]    LOW
20  CC(=O)Nc1ncc(CN2C[C@]3(C[C@@H]2C)OCc2cnccc23)s1 (single isomer, unassigned) [Example 65-b]   HIGH
21  CC(=O)Nc1nc(F)c(CN2CCCC3(C2)OCc2cnccc23)s1 (racemic) [Example 69]    LOW
22  CC(=O)Nc1ncc(CN2C[C@@]3(Cc4ccccc4O3)C[C@@H]2C)s1 [Example 2]    MID
23  CC(=O)Nc1ncc(CN2C[C@@]3(Cc4cc(N5C[C@@H](C)O[C@@H](C)C5)ncc4O3)C[C@@H]2C)s1 [Example 38]    LOW
24  CC(=O)Nc1nc(F)c(CN2C[C@@]3(Cc4cc(C5CC5)ncc4O3)C[C@@H]2C)s1 [Example 24]    LOW
25  CC(=O)Nc1ncc(CN2CCC3(C2)OCc2cnccc23)s1 (stereo not drawn) [Example 66]   HIGH
26  CC(=O)Nc1nc(F)c(CN2CCC[C@]3(C2)OCc2c3ccnc2Cl)s1 [Example 84-b]   HIGH
27  CCOc1cc2c(cn1)O[C@]1(C2)C[C@H](C)N(Cc2sc(NC(C)=O)nc2F)C1 [Example 46]    LOW
28  CC(=O)Nc1nc(F)c(CN2CC3(C[C@@H]2C)OCc2ccccc23)s1 (stereo partly drawn) [Example 58]    LOW
29  CC(=O)Nc1ncc(CN2CCCC3(C2)OCc2cncnc23)s1 (stereo not drawn) [Example 89]    MID
30  COc1cc2c(cn1)O[C@]1(C2)C[C@H](C)N(Cc2cnc(NC(C)=O)s2)C1 [Example 17]    LOW
31  COCCOc1cc2c(cn1)O[C@]1(C2)C[C@H](C)N(Cc2sc(NC(C)=O)nc2F)C1 [Example 47]    LOW

Values from patent US12565504B2
